I'd be grateful if you could share measured inhibition at 50 µM for these entries.
System: Erk →pRsk
Test: Cellular substrate phosphorylation (Western blotting), Erk substrate Rsk1
Assay type: cell-based
Conditions: 5 h, tumour cell line
Give your result in % as a bare value.

Prompt: Could you share what inhibition at 50 µM was measured for CCNC(=O)Nc1ccc2ncc(Nc3ccc(C)c(NS(C)(=O)=O)c3)nc2n1 , tested on Erk →pRsk?
Completion: 0

Prompt: What inhibition at 50 µM appears in the records for this molecule with Erk →pRsk? CCNC(=O)Nc1ccc2ncc(-c3ccc(OC(=O)OCCOC)cc3)nc2n1
Completion: 100

Prompt: Reported inhibition at 50 µM for Erk →pRsk, given CCNC(=O)Nc1ccc(-c2cnc3ccc(NC(=O)NCC)nc3n2)cc1 ?
Completion: 0

Prompt: Lab request: please report inhibition at 50 µM under test system Erk →pRsk for CCNC(=O)Nc1ccc2ncc(-c3ccc(OC(=O)OC)cc3)nc2n1
Completion: 90

Prompt: Hi! What's the reported inhibition at 50 µM for CCNC(=O)Nc1ccc2ncc(-c3ccc(OC(=O)OCCOC)c(OC)c3)nc2n1 on Erk →pRsk?
Completion: 100

---

Exercise: for every item that follows, state its recorded pIC50.
Target: PI3Kalpha (Homo sapiens)
Construct: in some cases as full-length kinases, in some cases as truncated fragments; purchased Upstate 14-602
Experiment: Cell-free kinase assay (ALPHA technology), PI3K-ALPHA
Assay type: biochemical
Conditions: 100 μM ATP, recombinant human kinase
Where a name gives a salt, the structure may show the parent alone.
Reminder that pIC50 means the negative base-10 logarithm of the concentration expressed in mol/L.

Prompt: Report pIC50 for CCNC(=O)Nc1ccc(-c2cnc3ccc(NC(=O)NCC)nc3n2)cn1 please.
Completion: 5.36

Prompt: What value of pIC50 has been reported for the following compound? CCNC(=O)Nc1ccc2ncc(Nc3ccc(C)c(NS(C)(=O)=O)c3)nc2n1
Completion: 5.72

Prompt: Requested read-out: pIC50. Entry: COCCOC(=O)Oc1ccc(-c2cnc3ccc(NC(=O)NCCCCO)nc3n2)cc1 [Compound 58, hydrochloride]
Completion: 5.37

Prompt: State the recorded pIC50 for this entry: COc1cc(-c2cnc3ccc(NC(=O)NCCCCP(=O)(O)O)nc3n2)ccc1O
Completion: 4.90

---

Biological target: PI3Kalpha (Homo sapiens, UniProt P42336)
Construct: in some cases as full-length kinases, in some cases as truncated fragments; purchased Upstate 14-602
Sequence (P42336 whole entry, the tested form may be a part): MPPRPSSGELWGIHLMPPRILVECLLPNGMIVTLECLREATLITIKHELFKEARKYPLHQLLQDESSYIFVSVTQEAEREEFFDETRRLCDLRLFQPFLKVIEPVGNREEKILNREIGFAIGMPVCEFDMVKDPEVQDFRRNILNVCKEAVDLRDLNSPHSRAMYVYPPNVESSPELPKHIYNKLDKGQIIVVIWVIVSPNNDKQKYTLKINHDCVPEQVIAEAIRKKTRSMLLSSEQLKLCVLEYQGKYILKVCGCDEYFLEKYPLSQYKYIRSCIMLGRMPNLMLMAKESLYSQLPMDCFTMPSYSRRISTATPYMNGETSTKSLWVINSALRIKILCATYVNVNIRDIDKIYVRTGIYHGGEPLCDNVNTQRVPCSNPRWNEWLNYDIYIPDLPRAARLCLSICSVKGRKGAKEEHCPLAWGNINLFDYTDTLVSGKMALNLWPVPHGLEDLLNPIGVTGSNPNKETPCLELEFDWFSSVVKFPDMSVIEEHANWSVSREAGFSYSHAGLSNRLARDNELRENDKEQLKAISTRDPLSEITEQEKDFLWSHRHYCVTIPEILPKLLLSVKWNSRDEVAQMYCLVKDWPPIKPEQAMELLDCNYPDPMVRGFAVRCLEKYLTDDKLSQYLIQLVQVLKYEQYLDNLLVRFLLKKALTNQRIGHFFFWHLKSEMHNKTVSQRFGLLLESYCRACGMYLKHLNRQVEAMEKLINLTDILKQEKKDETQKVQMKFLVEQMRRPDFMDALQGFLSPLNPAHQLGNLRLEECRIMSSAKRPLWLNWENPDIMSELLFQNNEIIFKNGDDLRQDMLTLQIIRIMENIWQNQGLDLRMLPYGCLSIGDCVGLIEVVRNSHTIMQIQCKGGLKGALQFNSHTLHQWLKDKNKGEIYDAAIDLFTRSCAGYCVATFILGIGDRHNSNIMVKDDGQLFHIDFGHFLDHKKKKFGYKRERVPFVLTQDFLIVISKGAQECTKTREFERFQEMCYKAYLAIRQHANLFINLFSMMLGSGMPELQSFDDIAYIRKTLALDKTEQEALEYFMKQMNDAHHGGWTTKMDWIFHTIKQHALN
Sequence (P27986 whole entry partner, the tested form may be a part): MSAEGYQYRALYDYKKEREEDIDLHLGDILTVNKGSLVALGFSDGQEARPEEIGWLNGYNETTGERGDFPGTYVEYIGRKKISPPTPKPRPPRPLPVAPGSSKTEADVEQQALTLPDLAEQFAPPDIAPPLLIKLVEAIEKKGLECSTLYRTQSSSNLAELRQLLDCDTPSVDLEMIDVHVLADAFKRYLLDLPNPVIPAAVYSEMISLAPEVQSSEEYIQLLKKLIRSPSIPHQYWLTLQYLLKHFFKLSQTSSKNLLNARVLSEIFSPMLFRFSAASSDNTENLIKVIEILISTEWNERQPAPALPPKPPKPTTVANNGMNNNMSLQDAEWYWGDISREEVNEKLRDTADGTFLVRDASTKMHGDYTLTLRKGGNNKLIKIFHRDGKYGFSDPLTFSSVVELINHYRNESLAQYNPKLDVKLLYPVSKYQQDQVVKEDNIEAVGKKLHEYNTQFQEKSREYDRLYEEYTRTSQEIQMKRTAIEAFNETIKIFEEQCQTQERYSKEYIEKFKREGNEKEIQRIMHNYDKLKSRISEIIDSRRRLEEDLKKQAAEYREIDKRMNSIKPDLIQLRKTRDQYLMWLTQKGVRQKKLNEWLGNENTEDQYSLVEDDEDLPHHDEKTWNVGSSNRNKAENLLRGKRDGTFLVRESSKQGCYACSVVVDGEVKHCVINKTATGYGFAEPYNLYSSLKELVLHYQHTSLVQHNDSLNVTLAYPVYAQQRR
Assay: Cell-free kinase assay (ALPHA technology), PI3K-ALPHA
Type: biochemical
Conditions: 100 μM ATP, recombinant human kinase; hydrochloride
Counter-ions that a name gives are not always drawn.
Measurement label: IC50 (µM)
Just the number in µM, nothing appended.

Prompt: Lab note: need IC50 with PI3Kalpha (Homo sapiens, UniProt P42336) for entry CCNC(=O)Nc1ccc2ncc(-c3ccc(OC(=O)OCCOC)cc3)nc2n1 [Compound 55, hydrochloride] , please look it up.
Completion: 3.6

---

Exercise: state measured melting point for each of the molecules provided.

Prompt: State the recorded melting point for this entry: CCNC(=O)Nc1ccc2ncc(/C=C/C3CCCCC3)nc2n1
Completion: 202 to 204 °C (dec.)

Prompt: So what does the record say about melting point for CCNC(=O)Nc1ccc2ncc(-c3ccc(NC(=O)OC(C)(C)C)cc3)nc2n1 ?
Completion: 281 to 283 °C

Prompt: Look at this molecule and give its reported melting point. CCNC(=O)Nc1ccc2ncc(-c3ccc(OC(=O)OC)cc3)nc2n1
Completion: 243 to 245 °C
